Molecular target: T1, Human CXCR7 (human, UniProt P25106 1-362)
T1 construct: see assay field; also called hCXCR7
T1 sequence (P25106 whole entry): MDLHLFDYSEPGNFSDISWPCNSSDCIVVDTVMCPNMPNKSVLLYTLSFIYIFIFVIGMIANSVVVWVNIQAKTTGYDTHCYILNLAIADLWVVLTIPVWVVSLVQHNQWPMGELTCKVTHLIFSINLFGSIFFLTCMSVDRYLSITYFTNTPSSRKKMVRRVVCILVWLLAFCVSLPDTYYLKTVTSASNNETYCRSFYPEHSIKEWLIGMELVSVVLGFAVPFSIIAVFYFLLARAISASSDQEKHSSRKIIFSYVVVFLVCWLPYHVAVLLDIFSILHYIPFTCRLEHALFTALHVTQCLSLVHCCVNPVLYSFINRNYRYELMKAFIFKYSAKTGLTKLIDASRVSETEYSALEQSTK
Assay: [125I]-CXCL12 displacement on NIH3T3-hCXCR7 cells, relative to cold SDF-1
Description: After incubation, cells were washed twice, lysed with RIPA buffer and the ¹²⁵I signal was measured.
Measured Parameter: Average SDF-1 displacement (%)

Observe how each entry below is paired with its result.
[[record]]
binder = "Nanobody 07C03 with Tag-2 (VHH, Purified from E. coli periplasm) VHH: EVQLVESGGGLVQAGESLTLSCAASGRTLSAYIMGWFRQAPGKEREFVAGIWSGGYTHLADSAKGRFSISRDNAKNTVYLQMNGLKPEDTAVYYCAAGLRGRQYSNWGQGTQVTVSS"
assay_result = 78

[[record]]
binder = "Nanobody 08A10 with Tag-2 (VHH, Purified from E. coli periplasm) VHH: EVQLVESGGGLVQAGGSLRLSCAASGSIFSIAAMGWYRQATGKQRELVATITDGGTTTYADSVKGRVTISRDRSANTVYLAMNNLKPDDTAVYYCYAYLRYTSRVPGDNYWGQGTQVTVSS"
assay_result = 75


[I] Nanobody 01C10 with Tag-2 (VHH, Purified from E. coli periplasm) VHH: EVQLVESGGGLVQTGASLRLSCAASGRTFSNYAMGWFRQAPGKERERVAAITPRAFTTYYADSVKGRFTISRDNAKNTAYLQMVSLKPEDTAVYYCAAQLVGSGSNLGRQESYAYWGQGTQVTVSS
[II] Nanobody 07B11 with Tag-2 (VHH, Purified from E. coli periplasm) VHH: EVQLVESGGNLVQAGGSLGLSCAASVSISSIHIMGWYRQAPGKQRDLVATITSGGSTAYADSVKGRFTVSKDNAKNTVYLQMDSLKPEDTSVYYCAAEVRNGVFGKWNHYWGQGTQVTVSS
Ask: Dear colleague, could you let me know whether I or II has the lower recorded Average SDF-1 displacement (%)? Thanks. Use the label to indicate which entry you chose.
Reply: I
